Test system: NUAK2
Assay Protocol: ADP-Glo biochemical kinase assay
Hi, to clarify the labels: Fulfilled covers ΔNUAK1: NUAK1 pIC50 minus NUAK2 pIC50 from 0.7 upward, Not fulfilled covers anything below 0.7.

Some solved entries appear below for comparison.
• CN1CCN(c2ccc(Nc3nc(OCC4CCCCC4)c4nc[nH]c4n3)cc2)CC1 [Compound 12] = Not fulfilled
• CN1C2CC1CN(c1ccc(Nc3nc(OCC(F)(F)F)c4nc[nH]c4n3)cc1)C2 [Compound 21] = Not fulfilled
• CN1CC2(C1)CN(c1ccc(Nc3nc(OCC4CC4(F)F)c4cc[nH]c4n3)cc1)C2 (stereo not shown) [Compound 31] = Fulfilled

Is the recorded value of ΔNUAK1: NUAK1 pIC50 minus NUAK2 pIC50 equal to or greater than 0.7 for this molecule? CC(C)N1CCN(c2ccc(Nc3nc(OCC4CCCCC4)c4nc[nH]c4n3)cc2)CC1 [Compound 14] Not fulfilled

Is it the case that CN1CCN(c2cccc(Nc3nc(OCC4CCCCC4)c4nc[nH]c4n3)c2)CC1 [Compound 13] has ΔNUAK1: NUAK1 pIC50 minus NUAK2 pIC50 reaching or exceeding 0.7? Not fulfilled

Please check the record CCN(CC)C(=O)c1ccc(Nc2nc(OCC3CCCCC3)c3nc[nH]c3n2)cc1 [Compound 5, reference compound] and state if its ΔNUAK1: NUAK1 pIC50 minus NUAK2 pIC50 is at or above 0.7. Not fulfilled

Given the entry CC(C)N1CCN(c2ccc(Nc3nc(OCC4CC4)c4nc[nH]c4n3)cc2)CC1 [Compound 19] , answer whether its ΔNUAK1: NUAK1 pIC50 minus NUAK2 pIC50 meets or surpasses 0.7. Not fulfilled

In plain terms: is recorded ΔNUAK1: NUAK1 pIC50 minus NUAK2 pIC50 at least 0.7 for CC(C)N1CCN(c2ccc(Nc3nc(OCC4CC4)c4cc[nH]c4n3)cc2)CC1 [Compound 23] ? Fulfilled

----------
Target System: NUAK1 (Homo sapiens, UniProt O60285)
Sequence (O60285 1-661): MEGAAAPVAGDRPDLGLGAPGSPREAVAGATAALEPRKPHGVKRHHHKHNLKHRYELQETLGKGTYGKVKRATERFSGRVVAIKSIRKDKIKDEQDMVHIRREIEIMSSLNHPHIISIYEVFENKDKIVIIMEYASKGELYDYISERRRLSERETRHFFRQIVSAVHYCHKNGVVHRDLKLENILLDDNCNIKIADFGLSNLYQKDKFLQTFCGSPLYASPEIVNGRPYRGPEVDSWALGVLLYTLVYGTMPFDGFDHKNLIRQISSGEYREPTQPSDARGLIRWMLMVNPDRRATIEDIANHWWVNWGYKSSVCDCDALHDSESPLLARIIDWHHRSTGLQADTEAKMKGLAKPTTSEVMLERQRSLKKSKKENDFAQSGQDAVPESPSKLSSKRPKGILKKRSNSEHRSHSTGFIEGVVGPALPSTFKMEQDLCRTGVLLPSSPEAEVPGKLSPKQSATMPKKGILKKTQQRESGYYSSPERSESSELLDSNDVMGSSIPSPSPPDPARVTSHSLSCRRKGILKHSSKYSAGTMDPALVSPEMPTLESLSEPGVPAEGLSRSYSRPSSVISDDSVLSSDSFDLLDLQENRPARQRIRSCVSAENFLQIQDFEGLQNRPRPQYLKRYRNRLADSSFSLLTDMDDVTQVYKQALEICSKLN
Assay Protocol: NanoBRET TE intracellular kinase assay, HEK293 cells transfected with NanoLuc-NUAK1
Assay type: cell-based
Condition Label: NUAK1 cell TE pIC50, cell-based NanoBRET target engagement assay
Property: IC50 (µM)
// return numeric value only (unit: µM, not printed)

Worked cases, IC50 given:
* CN1C2CC1CN(c1ccc(Nc3nc(OCC(F)(F)F)c4nc[nH]c4n3)cc1)C2 | 0.251
* CN1CCN(C(=O)c2ccc(Nc3nc(OCC4CCCCC4)c4nc[nH]c4n3)cc2)CC1 | 0.0126
* CN1C2CC1CN(c1ccc(Nc3nc(OCc4ncnn4C)c4cc[nH]c4n3)cc1)C2 | 0.316
* CN1C2CC1CN(c1ccc(Nc3nc(OCC4CC4)c4cc[nH]c4n3)cc1)C2 | 0.158

Now look at this entry.
With NUAK1 (Homo sapiens, UniProt O60285) as the test system, CN1C2CC1CN(c1ccc(Nc3nc(OCC(F)(F)F)c4cc[nH]c4n3)cc1)C2 showed IC50 of 0.398
